Target: human CAIX antigen (purchased from AcroBiosystems) (human, UniProt Q16790 38-414)
Test: BLI (ForteBio), antibody on AHQ sensor, 100 nM antigen, 1:1 model
Below, each entry is listed alongside its reported koff.
Write it as a number; the unit s⁻¹ goes unstated.

Example binders with recorded koff:
INSERT INTO results (binder, numeric_value) VALUES
  ('H-YE-24 (Fc fusion, also called CAIX nanobody H-YE-24; not shown: human IgG1 Fc segment) QVQLQESGGGLVQPGGSLRLSCAASGNSVNIFRFAAMAWYRQAPGKQRELVAVITSAGGTKYSDSVKGRFTISRDNAKNTVLLQMNSLKPEDTAVYYCNADYLQDYWGQGTQVTVSS', 0.000798),
  ('H-YE-25 (Fc fusion, also called CAIX nanobody H-YE-25; not shown: human IgG1 Fc segment) QVQLQESGGGLVQPGGSLRLSCAASGNSVNIFRFAAMAWYRQAPGKQRELVAVITTTGGTKYSDSVKGRFTISRDSAKNTVLLQMNSLKPEDTAVYYCNADYLQDYWGQGTQVTVSS', 0.00106),
  ('H-YE-40 (Fc fusion, also called CAIX nanobody H-YE-40; not shown: human IgG1 Fc segment) QVQLQESGGGLVQAGGSLRLSCAASGRTFSSYAMGWFRQAPGKEREFVATISWNGGSTYYADSVKGRFTISRDNAKNTVYLQMNSLKPEDTAVYYCAAEHDLGELAGTGYDYWGQGTQVTVSS', 0.00125),
  ('H-YE-33 (Fc fusion, also called CAIX nanobody H-YE-33; not shown: human IgG1 Fc segment) QVQLQESGGGLVQPGGSLRLSCAASGGDFRFYDMGWYRQAPGKQRELVAGITTRGYTNYADVVKGRFTISRDNAKNTVYLEMNSLKPEDTAVYSCSASHFLGGRIDYWGQGTQVTVSS', 0.00139),
  ('H-YE-04 (Fc fusion, also called CAIX nanobody H-YE-04; not shown: human IgG1 Fc segment) QVQLQESGGGLVQPGGSLRLSCTASTSSFNFQTLGWYRQAPGNQRELVATITSRAITNYADSVKGRFTISRDNAAKTVSLQMNSLKPEDTAVYYCNAAWIGDYWGQGTQVTVSS', 0.000259);

Here is the next item to consider.
Quick check: koff of H-YE-05 (Fc fusion, also called CAIX nanobody H-YE-05; not shown: human IgG1 Fc segment) QVQLQESGGGLVQPGGSRRLSCAASGNSVNIFSFAAVAWYRQAPGKQRELVAVITTTGGTKYSDSVKGRFTISRDSAKNTVLLQMNSLKPEDTAVYYCNADYLQDYWGQGTQVTVSS ? 0.000662

Reference source for all entries: patent US20230002503A1
